This collection of values is drawn from the DeepSol protein solubility set.

Experiment: soluble on expression in E. coli; label from the status in PepcDB or PDB records
Test readout: soluble on expression in E. coli

MGSDKIHHHHHHMNIKQLHYFLVVAEEKQITAAAKRLYIAQPPLSYQLKQLEKELGAQLFKRTAHGIELTDAGQTLQSYASEILSLAQNAKNQVHKTISGELGTVAMGIVSSSTGYMPIAAFKELTQFYPEINFDIYEDNTFGVLDKLEKKTIDMGIVRTPYNRTGLNAKTLTTEKMMAVTNDITLLHKKELRIEDLKDQPLIIYRRFEEMFNQTFAHHGIKPFYAMKCDDSRTAITWAKQNMGLALVPESIATTYAKNKMIAVKHVNWITHLQLVWRKDQIVTPLMKKIISLVK
not soluble
MGSDKIHHHHHHMRRKIPSTTALVSFEAAARHESFTKAAHELSLTQGAVCRQIGGLEEFLGIELFRRSRRGVKLTEAGLSYSRRVAQQLDAVERDTLSVMGEQGAHAIELAVVPTFGTQWLLPRLKDFQHKHPDVTVHLTNRTRPFLFADTDFDAAIYFGDADWSGTQSHRLMGENSLPVCSPSFLGGRGSLKASELAELPLLQQTTRPYAWRQWFNAQNLNVARDMTGPRYELFSMLAQAAMHDMGVALIPPFLILRELHEKRLVIASISALPSNKAYHLMIPERKVESASLTAFRDWLVNQAHDYSLPQDKEQALV
not soluble
MTRHSAVRQAIIAALKKTDDGSTTFFDGRPVVVEEDELPAVAVYLSDAQYTGPEVDGDIWSAVLHVEVFLKATAPDSALDEQMENRVYPALGSVAGLGDIIRTMSAQGYNYQRDDEMAMWGSADLSYDITYSM
not soluble
